Answer each item with its documented pIC50.
- experimental.system: Non-receptor tyrosine-protein kinase TYK2 (Homo sapiens, UniProt P29597)
- Sequence (P29597 whole entry): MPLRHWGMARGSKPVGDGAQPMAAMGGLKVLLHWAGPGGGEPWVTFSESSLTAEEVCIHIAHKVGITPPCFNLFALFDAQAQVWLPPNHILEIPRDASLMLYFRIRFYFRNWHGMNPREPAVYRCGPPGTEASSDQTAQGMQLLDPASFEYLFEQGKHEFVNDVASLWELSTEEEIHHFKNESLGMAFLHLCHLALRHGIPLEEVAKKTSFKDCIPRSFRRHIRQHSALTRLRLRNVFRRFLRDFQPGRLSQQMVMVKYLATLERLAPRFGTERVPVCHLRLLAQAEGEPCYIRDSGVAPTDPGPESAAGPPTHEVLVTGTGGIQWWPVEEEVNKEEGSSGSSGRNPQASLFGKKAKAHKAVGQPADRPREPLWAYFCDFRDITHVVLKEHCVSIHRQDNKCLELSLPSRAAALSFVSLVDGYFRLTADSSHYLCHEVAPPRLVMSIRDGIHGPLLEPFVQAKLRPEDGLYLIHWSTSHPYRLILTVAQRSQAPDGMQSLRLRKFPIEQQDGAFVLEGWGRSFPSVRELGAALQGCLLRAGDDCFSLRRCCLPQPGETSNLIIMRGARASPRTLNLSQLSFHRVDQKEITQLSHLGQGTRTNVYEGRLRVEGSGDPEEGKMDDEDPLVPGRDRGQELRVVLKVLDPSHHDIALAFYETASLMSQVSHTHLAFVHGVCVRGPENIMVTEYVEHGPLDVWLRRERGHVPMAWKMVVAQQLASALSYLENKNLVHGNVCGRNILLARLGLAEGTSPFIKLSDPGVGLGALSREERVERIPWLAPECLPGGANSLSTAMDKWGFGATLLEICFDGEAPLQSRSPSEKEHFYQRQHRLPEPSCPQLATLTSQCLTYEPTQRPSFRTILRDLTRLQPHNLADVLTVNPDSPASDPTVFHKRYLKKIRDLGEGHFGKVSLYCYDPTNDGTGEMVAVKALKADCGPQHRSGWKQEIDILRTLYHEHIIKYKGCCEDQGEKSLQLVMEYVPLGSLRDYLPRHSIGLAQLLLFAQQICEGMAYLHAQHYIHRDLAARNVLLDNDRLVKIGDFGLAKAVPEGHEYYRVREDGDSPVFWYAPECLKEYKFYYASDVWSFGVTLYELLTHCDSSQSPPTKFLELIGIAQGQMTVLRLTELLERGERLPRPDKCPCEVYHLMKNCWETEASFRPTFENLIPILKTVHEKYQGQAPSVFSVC
- protocol.summary: Inhibition of recombinant TYK2
Give bare numbers, as −log10 of the molar value.

Example molecules with recorded pIC50:
| molecule | pIC50 |
| --- | --- |
| CN(C)CCN(C)c1ccc2cc1COCC=CCOCc1cccc(c1)-c1ccnc(n1)N2 (mixture of isomers) | 7.15 |
| CCN(CC)CCOc1ccc2cc1COCC=CCOCc1cccc(c1)-c1ccnc(n1)N2 (mixture of isomers) | 7.10 |
| C1=CCOc2cccc(c2)Nc2nccc(n2)-c2cccc(c2)OCC1 (mixture of isomers) | 7.15 |
| Fc1cnc2nc1-c1cccc(c1)COCC=CCOCc1cc(ccc1OCCN1CCCC1)N2 (mixture of isomers) | 6.85 |
| C1=CCOCc2cc(ccc2OCCN2CCCCC2)Nc2nccc(n2)-c2cccc(c2)COC1 (mixture of isomers) | 7.08 |

Ask: Consider the molecule CCS(=O)(=O)N1CCN(c2ccc3cc2COCC=CCOCc2cccc(c2)-c2ccnc(n2)N3)CC1 (mixture of isomers) and give its measured pIC50.
Result: 6.85

----------
- experimental.system: Tyrosine-protein kinase JAK1 (Homo sapiens, UniProt P23458)
- Sequence (P23458 whole entry): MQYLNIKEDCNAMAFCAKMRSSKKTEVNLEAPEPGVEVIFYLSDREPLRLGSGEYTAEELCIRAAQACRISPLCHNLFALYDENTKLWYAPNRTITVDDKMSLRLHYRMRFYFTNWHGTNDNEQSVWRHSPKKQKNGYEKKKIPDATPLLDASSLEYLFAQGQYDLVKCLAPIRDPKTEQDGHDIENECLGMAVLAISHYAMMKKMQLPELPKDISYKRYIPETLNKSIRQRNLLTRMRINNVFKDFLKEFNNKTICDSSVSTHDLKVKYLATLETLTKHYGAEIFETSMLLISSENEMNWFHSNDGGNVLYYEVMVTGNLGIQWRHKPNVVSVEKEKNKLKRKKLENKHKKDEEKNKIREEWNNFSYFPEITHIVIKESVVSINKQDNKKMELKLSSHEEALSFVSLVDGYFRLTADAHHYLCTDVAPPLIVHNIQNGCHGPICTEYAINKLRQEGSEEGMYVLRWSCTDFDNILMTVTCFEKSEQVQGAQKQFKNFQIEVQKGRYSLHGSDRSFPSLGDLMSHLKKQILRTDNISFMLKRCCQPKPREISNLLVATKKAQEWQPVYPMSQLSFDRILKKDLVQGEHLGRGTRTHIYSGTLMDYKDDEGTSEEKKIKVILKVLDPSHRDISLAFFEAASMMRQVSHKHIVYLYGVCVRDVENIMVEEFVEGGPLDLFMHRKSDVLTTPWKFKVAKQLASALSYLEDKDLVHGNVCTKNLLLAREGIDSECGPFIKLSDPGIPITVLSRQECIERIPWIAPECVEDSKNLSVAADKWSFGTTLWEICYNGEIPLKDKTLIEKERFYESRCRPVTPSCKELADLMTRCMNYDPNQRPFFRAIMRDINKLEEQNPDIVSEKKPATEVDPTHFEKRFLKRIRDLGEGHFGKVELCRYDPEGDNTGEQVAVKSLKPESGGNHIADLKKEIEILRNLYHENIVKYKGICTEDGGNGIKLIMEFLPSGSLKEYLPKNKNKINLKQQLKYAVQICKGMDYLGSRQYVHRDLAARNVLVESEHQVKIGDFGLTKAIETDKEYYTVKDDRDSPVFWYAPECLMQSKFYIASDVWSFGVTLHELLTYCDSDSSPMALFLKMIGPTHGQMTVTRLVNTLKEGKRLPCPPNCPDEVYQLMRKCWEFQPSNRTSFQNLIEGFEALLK
- protocol.summary: Inhibition of recombinant JAK1 using Poly (Glu,Ala,Tyr) as substrate after 2 hrs by luminescence assay
reported.endpoint: IC50 (µM)
Numbers only, in µM.

Example molecules with recorded IC50:
| molecule | IC50 / µM |
| --- | --- |
| COc1ccc2cc1COCC=CCCOc1cccc(c1)-c1ccnc(n1)N2 (mixture of isomers) | 3 |
| O=C1CCN(CCOc2ccc3cc2COCC=CCOCc2cccc(c2)-c2ccnc(n2)N3)C1 (mixture of isomers) | 0.94 |
| COc1ccc2cc1COCC=CCOCc1cccc(c1)-c1ccnc(n1)N2 (mixture of isomers) | 1.9 |

// each listed molecule needs a value for IC50
1. Fc1cc2cc(c1)-c1ccnc(n1)Nc1ccc(OCCN3CCCC3)c(c1)COCC=CCOC2 (mixture of isomers)
2. C1=CCOCc2cccc(c2)-c2ccnc(n2)Nc2cc(cc(OCCN3CCCC3)c2)COC1 (mixture of isomers)
3. Fc1ccc2cc1COCC=CCOCc1cc(ccc1OCCN1CCCC1)Nc1nccc-2n1 (mixture of isomers)
4. O=C1CCCN1CCOc1ccc2cc1COCC=CCOCc1cccc(c1)-c1ccnc(n1)N2 (mixture of isomers)

Result:
[0.38, 2.1, 4.6, 1.3]

----------
Answer each item with its documented IC50.
- experimental.system: Tyrosine-protein kinase JAK1 (Homo sapiens)
- protocol.summary: Inhibition of recombinant JAK1 using Poly (Glu,Ala,Tyr) as substrate after 2 hrs by luminescence assay

Example molecules with recorded IC50:
| molecule | IC50 |
| --- | --- |
| CCS(=O)(=O)N1CCN(c2ccc3cc2COCC=CCOCc2cccc(c2)-c2ccnc(n2)N3)CC1 (mixture of isomers) | > 10 µM |
| COc1ccc2cc1COCC=CCOCc1cc(ccc1OCCN1CCCC1)Nc1nccc-2n1 (mixture of isomers) | > 10 µM |
| C1=N/C2=N/c3ccc(OCCN4CCCC4)c(c3)COC/C=C/COCc3cccc(c3)C(=C1)N2 (mixture of isomers) | 1.28 µM |
| COc1ccc2cc1-c1ccnc(n1)Nc1ccc(OCCN3CCCC3)c(c1)COCC=CCOC2 | 4.9 µM |
| Fc1cnc2nc1-c1cccc(c1)COCC=CCOCc1cc(ccc1OCCN1CCCC1)N2 (mixture of isomers) | 0.83 µM |

// each listed molecule needs a value for IC50
1. C1=CCOCc2cc(ccc2OCCN2CCCCC2)Nc2nccc(n2)-c2cccc(c2)COC1 (mixture of isomers)
2. C1=CCOc2cccc(c2)Nc2nccc(n2)-c2cccc(c2)OCC1 (mixture of isomers)
3. CN1CCN(c2ccc3cc2COCC=CCOCc2cccc(c2)-c2ccnc(n2)N3)CC1 (mixture of isomers)
4. COc1ccc2cc1COCC=CCOc1cccc(c1)-c1ccnc(n1)N2 (mixture of isomers)

Result:
0.95 µM
> 10 µM
3.6 µM
5.8 µM
